Species: Rattus norvegicus
procedure text: DrugMatrix - Regimen: Daily Repeat
Type: toxicity, organism-based, Sprague-Dawley
Set-up: regimen Daily Repeat, gender Male, age 6-8 weeks
measurement conditions: in vivo, po, 2000 mg/kg, 72 h, tissue Plasma, route oral GAVAGE, dose level High, time 3 day, vehicle .5 % CMC
quantity measured: CHLORIDE (MEQ/L)
Numbers only, in MEQ/L.

So for CN(C/C=C/C#CC(C)(C)C)Cc1cccc2ccccc12 , the logged CHLORIDE turned out to be 108.67

So for NC1CCN(c2nc3c(cc2F)c(=O)c(C(=O)O)cn3-c2ccc(F)cc2F)C1 (stereo unspecified) , the logged CHLORIDE turned out to be 106.67

So for O=C1Nc2ccc(Cl)cc2C(c2ccccc2Cl)=NC1O (stereo unspecified) , the logged CHLORIDE turned out to be 99.33

Could you tell me CHLORIDE for each of these compounds? They are listed below.
1. COc1cc2nc(N3CCN(C(=O)c4ccco4)CC3)nc(N)c2cc1OC
2. CN/C(=N/CCSCc1nc[nH]c1C)NC#N
3. CC1(C)S[C@@H]2[C@H](NC(=O)[C@H](N)c3ccccc3)C(=O)N2[C@H]1C(=O)O

A.
1. 105
2. 98.33
3. 100.67

* * *

Hi there, I'd appreciate the recorded ALBUMIN for every entry that follows.
Species on record: Rattus norvegicus
procedure text: DrugMatrix - Regimen: Daily Repeat
Format: toxicity, organism-based, Sprague-Dawley
Set-up: regimen Daily Repeat, gender Male, age 6-8 weeks
measurement conditions: in vivo, po, 1500 mg/kg, 120 h, tissue Plasma, route oral GAVAGE, dose level High, time 5 day, vehicle .5 % CMC

Guide cases for ALBUMIN, answers given:
So for COC(=O)Nc1nc2ccc([S+]([O-])c3ccccc3)cc2[nH]1 (stereo not given) , the logged ALBUMIN turned out to be 4.17 G/DL

So for CC(C)Oc1ccc2c(=O)c(-c3ccccc3)coc2c1 , the logged ALBUMIN turned out to be 4.47 G/DL

So for CC(C)=CCC/C(C)=C/CO , the logged ALBUMIN turned out to be 4.63 G/DL

So for O=c1cnn([C@@H]2O[C@H](CO)[C@@H](O)[C@H]2O)c(=O)[nH]1 , the logged ALBUMIN turned out to be 3.5 G/DL

Okay, next one:
So for CN(C)[C@@H]1C(O)=C(C(N)=O)C(=O)[C@@]2(O)C(O)=C3C(=O)c4c(O)ccc(Cl)c4[C@@](C)(O)[C@H]3C[C@@H]12 , the logged ALBUMIN turned out to be 3.73 G/DL

* * *

Species: Rattus norvegicus
procedure text: DrugMatrix - Regimen: Daily Repeat
Format: toxicity, organism-based, Sprague-Dawley
Set-up: regimen Daily Repeat, gender Male, age 6-8 weeks
measurement conditions: in vivo, po, 0 mg/kg, 120 h, tissue Plasma, route oral GAVAGE, dose level Control, time 5 day, vehicle .5 % CMC
Hi there, I'd appreciate the recorded BLOOD UREA NITROGEN for every entry that follows.
Give bare numbers, in mg/dL.

Could you tell me BLOOD UREA NITROGEN for each of these molecules? They are listed below.
1. NC1CCN(c2nc3c(cc2F)c(=O)c(C(=O)O)cn3-c2ccc(F)cc2F)C1 (centres undefined)
2. O=C1CN=C(c2ccccc2Cl)c2cc([N+](=O)[O-])ccc2N1
3. CC(=O)Oc1ccc(C(c2ccc(OC(C)=O)cc2)c2ccccn2)cc1
4. CN(C)[C@@H]1C(O)=C(C(N)=O)C(=O)[C@@]2(O)C(O)=C3C(=O)c4c(O)ccc(Cl)c4[C@@](C)(O)[C@H]3C[C@@H]12

A.
1. 15
2. 17
3. 15.5
4. 17.67

* * *

Hi there, I'd appreciate the recorded ASPARTATE AMINOTRANSFERASE for every entry that follows.
Organism: Rattus norvegicus
procedure text: DrugMatrix - Regimen: Daily Repeat
Type: toxicity, organism-based, Sprague-Dawley
Set-up: regimen Daily Repeat, gender Male, age 6-8 weeks
measurement conditions: in vivo, po, 2000 mg/kg, 72 h, tissue Plasma, route oral GAVAGE, dose level High, time 3 day, vehicle .5 % CMC
Numbers only, in u/L.

So for CN(C/C=C/C#CC(C)(C)C)Cc1cccc2ccccc12 [TERBINAFINE] , the logged ASPARTATE AMINOTRANSFERASE turned out to be 120.33

Could you tell me ASPARTATE AMINOTRANSFERASE for each of these compounds? They are listed below.
1. CC1(C)S[C@@H]2[C@H](NC(=O)[C@H](N)c3ccccc3)C(=O)N2[C@H]1C(=O)O [AMPICILLIN]
2. CN/C(=N/CCSCc1nc[nH]c1C)NC#N [CIMETIDINE]
3. NC1CCN(c2nc3c(cc2F)c(=O)c(C(=O)O)cn3-c2ccc(F)cc2F)C1 (stereo unspecified) [TOSUFLOXACIN]
4. COc1cc2nc(N3CCN(C(=O)c4ccco4)CC3)nc(N)c2cc1OC [PRAZOSIN]
5. O=C1Nc2ccc(Cl)cc2C(c2ccccc2Cl)=NC1O (stereo unspecified) [LORAZEPAM]

A.
1: 77.67; 2: 83.33; 3: 58.67; 4: 131.67; 5: 105.33

* * *

Organism: Rattus norvegicus
procedure text: DrugMatrix - Regimen: Daily Repeat
Type: toxicity, organism-based, Sprague-Dawley
Design: regimen Daily Repeat, gender Male, age 6-8 weeks
measurement conditions: in vivo, po, 0 mg/kg, 120 h, tissue Plasma, route oral GAVAGE, dose level Control, time 5 day, vehicle 100 % WATER
Hi there, I'd appreciate the recorded ALANINE AMINOTRANSFERASE for every entry that follows.
Answers are plain numbers, in u/L.

So for CN1[C@@H]2CC[C@H]1C[C@@H](OC(=O)C(CO)c1ccccc1)C2 (stereo partly drawn) [ATROPINE] , the logged ALANINE AMINOTRANSFERASE turned out to be 52.83

So for CN(C)CCOC(c1ccccc1)c1ccccc1 [DIPHENHYDRAMINE] , the logged ALANINE AMINOTRANSFERASE turned out to be 51

New cases:
So for C[C@]12C=CC(=O)C=C1CC[C@@H]1[C@@H]2[C@@H](O)C[C@@]2(C)[C@H]1CC[C@]2(O)C(=O)CO [PREDNISOLONE] , the logged ALANINE AMINOTRANSFERASE turned out to be 56.17

* * *

Species on record: Rattus norvegicus
procedure text: DrugMatrix - Regimen: Daily Repeat
Assay type: toxicity, organism-based, Sprague-Dawley
Set-up: regimen Daily Repeat, gender Male, age 6-8 weeks
measurement conditions: in vivo, po, 0 mg/kg, 120 h, tissue Blood, route oral GAVAGE, dose level Control, time 5 day, vehicle 100 % WATER
quantity measured: MEAN CORPUSCULAR VOLUME (fL)
Give bare numbers, in fL.

Could you tell me MEAN CORPUSCULAR VOLUME for each of these compounds? They are listed below.
1. CC(C)NCC(O)c1ccc(NS(C)(=O)=O)cc1 (stereo unspecified)
2. NNc1nncc2ccccc12 [HYDRALAZINE]
3. CN(C)CCOC(c1ccccc1)c1ccccc1 [DIPHENHYDRAMINE]
4. CN(C)CC[C@@H](c1ccc(Cl)cc1)c1ccccn1
5. Cn1c(=O)c2[nH]cnc2n(C)c1=O.O
6. CS(=O)(=O)c1ccc([C@@H](O)[C@@H](CO)NC(=O)C(Cl)Cl)cc1

A.
1: 62.97; 2: 62.28; 3: 62.28; 4: 63.23; 5: 62.55; 6: 62.42

Could you tell me MEAN CORPUSCULAR VOLUME for each of these compounds? They are listed below.
1. O.O.O.O.O.O.[Cl-].[Cl-].[Sr+2] [STRONTIUM CHLORIDE HEXAHYDRATE]
2. C[C@]12C=CC(=O)C=C1CC[C@@H]1[C@@H]2[C@@H](O)C[C@@]2(C)[C@H]1CC[C@]2(O)C(=O)CO
3. Oc1cccc(O)c1O
4. CCN(CC)CCNC(=O)c1cc(S(C)(=O)=O)ccc1OC [TIAPRIDE]
5. CC(C)(C)CC(C)(C)c1ccc(OCCOCC[N+](C)(C)Cc2ccccc2)cc1.[Cl-] [BENZETHONIUM CHLORIDE]

A.
[62.42, 59.52, 60.66, 62.42, 62.28]

* * *

Species on record: Rattus norvegicus
procedure text: DrugMatrix - Regimen: Daily Repeat
Assay type: toxicity, organism-based, Sprague-Dawley
Parameters: regimen Daily Repeat, gender Male, age 6-8 weeks
measurement conditions: in vivo, po, 1500 mg/kg, 72 h, tissue Plasma, route oral GAVAGE, dose level High, time 3 day, vehicle .5 % CMC
Hi there, I'd appreciate the recorded ASPARTATE AMINOTRANSFERASE for every entry that follows.
Answers are plain numbers, in u/L.

Guide cases for ASPARTATE AMINOTRANSFERASE, answers given:
So for O=c1cnn([C@@H]2O[C@H](CO)[C@@H](O)[C@H]2O)c(=O)[nH]1 [6-AZAURIDINE] , the logged ASPARTATE AMINOTRANSFERASE turned out to be 104.67

So for CN(C)[C@@H]1C(O)=C(C(N)=O)C(=O)[C@@]2(O)C(O)=C3C(=O)c4c(O)ccc(Cl)c4[C@@](C)(O)[C@H]3C[C@@H]12 [CHLORTETRACYCLINE] , the logged ASPARTATE AMINOTRANSFERASE turned out to be 99.33

So for CC(C)Oc1ccc2c(=O)c(-c3ccccc3)coc2c1 [IPRIFLAVONE] , the logged ASPARTATE AMINOTRANSFERASE turned out to be 80.33

So for COC(=O)Nc1nc2ccc([S+]([O-])c3ccccc3)cc2[nH]1 (stereo not given) [OXFENDAZOLE] , the logged ASPARTATE AMINOTRANSFERASE turned out to be 70.33

Okay, next one:
So for CC(C)=CCC/C(C)=C/CO [GERANIOL] , the logged ASPARTATE AMINOTRANSFERASE turned out to be 82
